# Test system: S. pneumoniae ATCC 49619
# Assay Procedure: CLSI broth dilution MIC determination
# Type: cell-based
# Measurement Parameters: S. pneumoniae ATCC 49619; Gram-positive
Property Measured: MIC

Observe how each entry below is paired with its result.
1) CC[C@H]1OC(=O)[C@H](C)C(=O)[C@H](C)[C@@H](O[C@@H]2OC(C)CC(N(C)C)C2O)[C@](C)(OC)C[C@@H](C)C(=O)[C@H](C)[C@H]2N(C/C=C/Cn3cnc(-c4ccccn4)c3)C(=O)O[C@]12C (stereo partly shown): < 0.0312 µg/mL
2) CC[C@H]1OC(=O)[C@@](C)(F)C(=O)[C@H](C)[C@@H](O[C@@H]2OC(C)CC(N(C)C)C2O)[C@](C)(OC)C[C@@H](C)C(=O)[C@H](C)[C@H]2N(C/C=C/Cn3cc(-c4cccc(N)n4)nn3)C(=O)O[C@]12C (stereo partly shown): < 0.0312 µg/mL
3) CC[C@H]1OC(=O)[C@@](C)(F)C(=O)[C@H](C)[C@@H](O[C@@H]2OC(C)CC(N(C)C)C2O)[C@](C)(OC)C[C@@H](C)C(=O)[C@H](C)[C@H]2N(CC#CCn3cc(-c4cccc(N)c4)nn3)C(=O)O[C@]12C (stereo partly shown): < 0.0312 µg/mL

// next item, MIC requested
The reported MIC of the compound CC[C@H]1OC(=O)[C@H](C)C(=O)[C@H](C)[C@@H](O[C@@H]2OC(C)CC(N(C)C)C2O)[C@](C)(OC)C[C@@H](C)C(=O)[C@H](C)[C@H]2N(C/C=C/Cn3cc(-c4nccs4)nn3)C(=O)O[C@]12C (stereo partly shown) was ≤ 0.0312 µg/mL

###

# Tested on: P. aeruginosa MP-8 PAO1:mex (mex-oprM-deletion)
# Assay Procedure: CLSI broth dilution MIC determination
# Assay type: cell-based
# Measurement Parameters: Pseudomonas aeruginosa, PAO1
Property Measured: MIC

1) CC[C@H]1OC(=O)[C@@](C)(F)C(=O)[C@H](C)[C@@H](O[C@@H]2OC(C)CC(N(C)C)C2O)[C@](C)(OC)C[C@@H](C)C(=O)[C@H](C)[C@H]2N(CC#CCn3cc(-c4cc(=O)cc[nH]4)nn3)C(=O)O[C@]12C (some centres unmarked): 16 µg/mL

// next item, MIC requested
// MIC (P. aeruginosa MP-8 PAO1:mex (mex-oprM-deletion)) for CC[C@H]1OC(=O)[C@H](C)C(=O)[C@H](C)[C@@H](O[C@@H]2OC(C)CC(N(C)C)C2O)[C@](C)(OC)C[C@@H](C)C(=O)[C@H](C)[C@H]2N(CC#CCn3cc(-c4cccnn4)nn3)C(=O)O[C@]12C (some centres unmarked) = 16 µg/mL

###

# Test system: S. aureus MP-17 ATCCBAA-977 (BAA 977 iErm)
# Assay Procedure: CLSI broth dilution MIC determination
# Type: cell-based
# Measurement Parameters: Staphylococcus aureus; S. aureus MP-17, ATCCBAA-977, iErm; read-out: MIC
Property Measured: MIC

Observe how each entry below is paired with its result.
1. CC[C@H]1OC(=O)[C@@](C)(F)C(=O)[C@H](C)[C@@H](O[C@@H]2OC(C)CC(N(C)C)C2O)[C@](C)(OC)C[C@@H](C)C(=O)[C@H](C)[C@H]2N(CC#CCn3cc(-c4cc(N)ncn4)nn3)C(=O)O[C@]12C (some centres unmarked): 1 µg/mL
2. CC[C@H]1OC(=O)[C@@](C)(F)C(=O)[C@H](C)[C@@H](O[C@@H]2OC(C)CC(N(C)C)C2O)[C@](C)(OC)C[C@@H](C)C(=O)[C@H](C)[C@H]2N(CC#CCn3cc(-c4cccnn4)nn3)C(=O)O[C@]12C (some centres unmarked): 0.25 µg/mL
3. CC[C@H]1OC(=O)[C@@](C)(F)C(=O)[C@H](C)[C@@H](O[C@@H]2OC(C)CC(N(C)C)C2O)[C@](C)(OC)C[C@@H](C)C(=O)[C@H](C)[C@H]2N(CC#CCn3cc(-c4cc(N)ccn4)nn3)C(=O)O[C@]12C (some centres unmarked): 0.125 µg/mL
4. CC[C@H]1OC(=O)[C@H](C)C(=O)[C@H](C)[C@@H](O[C@@H]2OC(C)CC(N(C)C)C2O)[C@](C)(OC)C[C@@H](C)C(=O)[C@H](C)[C@H]2N(CC#CCn3cc(-c4cccc(N)n4)nn3)C(=O)O[C@]12C (some centres unmarked): 0.06 µg/mL
5. CC[C@H]1OC(=O)[C@@](C)(F)C(=O)[C@H](C)[C@@H](O[C@@H]2OC(C)CC(N(C)C)C2O)[C@](C)(OC)C[C@@H](C)C(=O)[C@H](C)[C@H]2N(CC#CCn3cc(-c4ncccn4)nn3)C(=O)O[C@]12C (some centres unmarked): 0.125 µg/mL

The reported MIC of the molecule CC[C@H]1OC(=O)[C@H](C)C(=O)[C@H](C)[C@@H](O[C@@H]2OC(C)CC(N(C)C)C2O)[C@](C)(OC)C[C@@H](C)C(=O)[C@H](C)[C@H]2N(CC#CCn3cc(-c4cccnn4)nn3)C(=O)O[C@]12C (some centres unmarked) was 0.25 µg/mL

The reported MIC of the molecule CC[C@H]1OC(=O)[C@H](C)C(=O)[C@H](C)[C@@H](O[C@@H]2OC(C)CC(N(C)C)C2O)[C@](C)(OC)C[C@@H](C)C(=O)[C@H](C)[C@H]2N(NCCCn3nnc4ccccc43)C(=O)O[C@]12C (some centres unmarked) was 0.25 µg/mL

The reported MIC of the molecule CC[C@H]1OC(=O)[C@@](C)(F)C(=O)[C@H](C)[C@@H](O[C@@H]2OC(C)CC(N(C)C)C2O)[C@](C)(OC)C[C@@H](C)C(=O)[C@H](C)[C@H]2N(CC#CCn3cc(-c4cnccn4)nn3)C(=O)O[C@]12C (some centres unmarked) was 0.25 µg/mL

Provenance of the data: patent US10633407B2
